Biological target: hAChE (Homo sapiens, UniProt P22303)
Sequence (P22303 32-614): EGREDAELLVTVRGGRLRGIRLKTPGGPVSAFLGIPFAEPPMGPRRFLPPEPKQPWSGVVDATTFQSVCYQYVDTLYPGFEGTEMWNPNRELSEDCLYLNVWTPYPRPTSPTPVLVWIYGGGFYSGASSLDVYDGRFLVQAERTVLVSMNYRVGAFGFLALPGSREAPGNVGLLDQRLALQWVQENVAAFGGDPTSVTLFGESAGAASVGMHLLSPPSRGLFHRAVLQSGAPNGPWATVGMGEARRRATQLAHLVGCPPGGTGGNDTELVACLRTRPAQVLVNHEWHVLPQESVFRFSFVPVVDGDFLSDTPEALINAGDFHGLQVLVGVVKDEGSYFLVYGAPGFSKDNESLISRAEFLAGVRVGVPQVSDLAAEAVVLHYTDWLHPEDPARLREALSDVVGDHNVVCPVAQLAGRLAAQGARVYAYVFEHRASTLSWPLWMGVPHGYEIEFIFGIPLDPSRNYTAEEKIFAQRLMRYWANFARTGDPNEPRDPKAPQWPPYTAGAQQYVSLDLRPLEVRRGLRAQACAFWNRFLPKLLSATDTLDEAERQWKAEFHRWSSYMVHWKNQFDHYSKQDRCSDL
Recorded log10 IC50, one value per entry.
Value Type: log10 IC50 (log10 of the value in µM)

compound_structure_string=COc1ccc2c(c1)c(CC(=O)NN=Cc1ccc(O)cc1)c(C)n2C(=O)c1ccc(Cl)cc1 value_type="log10 IC50" assay_result=0.62
compound_structure_string=COc1ccc2c(c1)c(CC(=O)NN=Cc1cccc(O)c1)c(C)n2C(=O)c1ccc(Cl)cc1 value_type="log10 IC50" assay_result=1.10
compound_structure_string=COc1ccc2c(c1)c(CC(=O)NN=Cc1cccc(O)c1O)c(C)n2C(=O)c1ccc(Cl)cc1 value_type="log10 IC50" assay_result=2.09
compound_structure_string=COc1ccc2c(c1)c(CC(=O)NN=Cc1ccccc1OC)c(C)n2C(=O)c1ccc(Cl)cc1 value_type="log10 IC50" assay_result=2.62
compound_structure_string=COc1cccc(C=NNC(=O)Cc2c(C)n(C(=O)c3ccc(Cl)cc3)c3ccc(OC)cc23)c1 value_type="log10 IC50" assay_result=2.42

###

Test: Antioxidant potential by DPPH assay
Details: 100 μM
Recorded % free radicle scavenging, mean ± SE, one value per entry.
Value Type: % free radicle scavenging, mean ± SE

compound=COc1ccc2c(c1)c(CC(=O)NN=Cc1cccc(O)c1O)c(C)n2C(=O)c1ccc(Cl)cc1 assay_result="38.87 ± 1.012%"
compound=COc1cccc(C=NNC(=O)Cc2c(C)n(C(=O)c3ccc(Cl)cc3)c3ccc(OC)cc23)c1 assay_result="27.99 ± 1.127%"
compound=COc1ccc2c(c1)c(CC(=O)NN=Cc1ccc(O)cc1)c(C)n2C(=O)c1ccc(Cl)cc1 assay_result="30.65 ± 1.010%"
compound=COc1ccc2c(c1)c(CC(=O)NN=Cc1ccccc1OC)c(C)n2C(=O)c1ccc(Cl)cc1 assay_result="26.43 ± 0.887%"
compound=COc1ccc2c(c1)c(CC(=O)NN=Cc1cccc(O)c1)c(C)n2C(=O)c1ccc(Cl)cc1 assay_result="34.34 ± 1.333%"
compound="O=C1O[C@H]([C@@H](O)CO)C(O)=C1O [Ascorbic acid, reference compound]" assay_result="76.76 ± 0.708%"
